Data origin, for the record: patent US9242970B2

study.target: human orexin-2 receptor (Homo sapiens (Human), UniProt O43614)
Sequence (O43614 whole entry): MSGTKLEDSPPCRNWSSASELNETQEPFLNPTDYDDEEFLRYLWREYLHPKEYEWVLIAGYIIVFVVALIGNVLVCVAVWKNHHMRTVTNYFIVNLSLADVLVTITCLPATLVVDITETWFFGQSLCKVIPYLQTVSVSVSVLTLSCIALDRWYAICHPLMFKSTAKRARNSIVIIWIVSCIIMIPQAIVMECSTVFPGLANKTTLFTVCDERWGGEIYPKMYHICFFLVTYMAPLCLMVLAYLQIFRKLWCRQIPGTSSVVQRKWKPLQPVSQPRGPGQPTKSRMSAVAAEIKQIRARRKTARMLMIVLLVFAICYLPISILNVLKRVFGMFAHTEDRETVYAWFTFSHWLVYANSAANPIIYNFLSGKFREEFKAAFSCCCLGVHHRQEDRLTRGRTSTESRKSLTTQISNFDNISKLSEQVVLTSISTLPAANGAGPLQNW
test.protocol: In vitro assay: intracellular calcium measurements (FLIPR), antagonistic activity
Type: cell-based
run.parameters: CHO cells, 3 nM orexin-A, compound incubation 120 min; marked values are geometric means of n = 2-6; read-out: IC50 OX2
This listing pairs compounds with measured IC50.
result.type: IC50

{"compound": "COc1cccc(OC)c1C1CC(C)C(=O)N1Cc1cccc(N2CCCC2)c1 (stereo not shown) [Example 123]", "result.type": "IC50", "assay.result": "0.074 µM"}
{"compound": "COc1cccc(OC)c1C1CC(C)C(=O)N1Cc1cccc(N2CCCCC2)c1 (stereo not shown) [Example 134]", "result.type": "IC50", "assay.result": "0.157 µM"}
{"compound": "COc1ccc(Cl)c(OC)c1C1CCCC(=O)N1Cc1cccc(-c2csc(C)n2)c1 (stereo not shown) [Example 281]", "result.type": "IC50", "assay.result": "0.115 µM"}
{"compound": "COc1cccc(OC)c1C1CC(C)C(=O)N1Cc1ccccc1OC(F)(F)F (stereo not shown) [Example 405]", "result.type": "IC50", "assay.result": "0.087 µM"}
